Each recorded value in this set is attributed to ChEMBL document CHEMBL3232945.

Reported Activity by item:
test system: Rattus norvegicus; assay: Toxicity in anaesthetized-Wistar rat assessed as QRS ECG interval at 40 mg/kg, ip after 60 mins (reference value: 19.3 +/- 0.873 ms); format: organism-based; parameters: dose 40 mg/kg, route intraperitoneal; details: in vivo, 1 h
Give the value, in units of min, as a plain number.

1) O=C1/C(=C\c2ccccc2)S/C(=N\c2ccccc2)N1CC(O)CN1CCN(C2CCCCC2)CC1 (centres undefined) ... 22.6

Input: Looking for the measured Activity of CCCCN(CCCC)CC(O)CN1C(=O)/C(=C\c2ccccc2)S/C1=N\c1ccccc1 (centres undefined) , can you help?
Output: 22.6

Input: Would you kindly repeat that for CN1CCN(CC(O)CN2C(=O)/C(=C\c3ccccc3)S/C2=N\c2ccccc2)CC1 (centres undefined) ?
Output: 24
